Form field: Ki (one value per entry).
target: human Nectin-4 (Homo sapiens, UniProt Q96NY8); assay: Nectin-4 competition binding assay (fluorescence polarisation); details: competition with fluorescent peptide SEQ ID NO: 217; read-out: Ki
Sequence (Q96NY8 32-510): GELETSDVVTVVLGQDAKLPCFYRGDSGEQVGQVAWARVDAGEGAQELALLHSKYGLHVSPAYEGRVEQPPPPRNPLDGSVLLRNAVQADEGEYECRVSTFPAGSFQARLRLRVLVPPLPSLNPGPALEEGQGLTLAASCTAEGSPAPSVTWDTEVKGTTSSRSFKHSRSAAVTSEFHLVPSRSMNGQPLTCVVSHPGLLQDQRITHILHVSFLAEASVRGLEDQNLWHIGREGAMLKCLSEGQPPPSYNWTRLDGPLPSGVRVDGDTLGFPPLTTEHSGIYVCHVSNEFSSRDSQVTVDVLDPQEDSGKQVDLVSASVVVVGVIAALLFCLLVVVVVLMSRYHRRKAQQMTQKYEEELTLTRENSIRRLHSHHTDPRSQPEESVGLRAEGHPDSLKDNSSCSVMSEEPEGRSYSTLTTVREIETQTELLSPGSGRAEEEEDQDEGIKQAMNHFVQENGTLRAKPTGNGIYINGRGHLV
*1 amine or outer side, *2 acyl side, *3 side chain or, on linkers, in order; H or OH if unused. Where a SMILES comes first, the peptide text is derived from it. Bridges are numbered along the chain shown (N, C = ends). TATA = O=C(CC[*:1])N1CN(C(=O)CC[*:2])CN(C(=O)CC[*:3])C1
Don't forget the unit after the value.

1) CC[C@H](C)[C@H]1C(=O)N[C@@H](Cc2c[nH]c3ccccc23)C(=O)N[C@H](C(N)=O)CSCCC(=O)N2CN3CN(C2)C(=O)CCSC[C@H](NC(C)=O)C(=O)N2CCC[C@H]2C(=O)N[C@@H](Cc2ccccc2)C(=O)N[C@H](CC(=O)O)C(=O)N[C@@H](CSCCC3=O)C(=O)N[C@@H](CCSC)C(=O)N[C@@H](CCCCNC(=N)N)C(=O)N[C@@H](CC(N)=O)C(=O)N[C@@H](Cc2c[nH]c3ccccc23)C(=O)N[C@@H](CO)C(=O)N[C@@H]([C@@H](C)O)C(=O)N2CCC[C@H]2C(=O)N1C [BCY8158, Ac-(SEQ ID NO: 176)] | 177 nM
2) CC[C@H](C)[C@@H]1NC(=O)[C@@H]2CCCN2C(=O)[C@H](Cc2ccc3ccccc3c2)NC(=O)[C@H](CO)NC(=O)[C@H](Cc2c[nH]c3ccccc23)NC(=O)[C@H](CC(N)=O)NC(=O)[C@H](CCCCN)NC(=O)[C@H](CCSC)NC(=O)[C@@H]2CSCCC(=O)N3CN(CN(C3)C(=O)CCSC[C@H](NC(C)=O)C(=O)N3CCC[C@H]3C(=O)N[C@@H](Cc3ccccc3)C(=O)NCC(=O)N2)C(=O)CCSC[C@@H](C(N)=O)NC(=O)[C@H](Cc2c[nH]c3ccccc23)NC1=O [BCY7592, Ac-(SEQ ID NO: 87)] | 37.4 nM
3) CC[C@H](C)[C@@H]1NC(=O)[C@H](CCCNC(=N)N)NC(=O)[C@H](CC(N)=O)NC(=O)[C@@H]2CSCCC(=O)N3CN(CN(C3)C(=O)CCSC[C@H](NC(C)=O)C(=O)N[C@@H](C)C(=O)N3CCC[C@H]3C(=O)N[C@@H](CC(C)C)C(=O)N[C@@H](CO)C(=O)N[C@@H](CC(=O)O)C(=O)N[C@@H](Cc3ccc(O)cc3)C(=O)N[C@@H](Cc3c[nH]c4ccccc34)C(=O)N2)C(=O)CCSC[C@@H](C(N)=O)NC1=O [BCY8044, Ac-(SEQ ID NO: 34)] (Ac-CAPLSDYWCNRIC-NH2; linker 1-9-13 via TATA; C-terminus assumed) | 170 nM

Okay, now this compound:
Challenge: For the compound CC[C@H](C)[C@@H]1NC(=O)[C@@H]2CCCN2C(=O)[C@H](Cc2c[nH]c3ccccc23)NC(=O)[C@H](CO)NC(=O)[C@H](Cc2c[nH]c3ccccc23)NC(=O)[C@H](CC(N)=O)NC(=O)[C@H](CCCCNC(=N)N)NC(=O)[C@H](CCSC)NC(=O)[C@@H]2CSCCC(=O)N3CN(CN(C3)C(=O)CCSC[C@H](NC(C)=O)C(=O)N3CCC[C@H]3C(=O)N[C@@H](Cc3ccccc3)C(=O)NCC(=O)N2)C(=O)CCSC[C@@H](C(N)=O)NC(=O)[C@H](Cc2c[nH]c3ccccc23)NC1=O [BCY7660, Ac-(SEQ ID NO: 59)] , give its reported Ki.
Response given: 26.2 nM

----------
molecular target: human Nectin-4 (Homo sapiens); experiment: Nectin-4 competition binding assay (fluorescence polarisation); conditions: competition with fluorescent peptide SEQ ID NO: 217; read-out: Ki
observed_property: pKi
// field semantics: pKi = negative decimal log of concentration (mol/L)

Study these solved cases before continuing.
1) CSCC[C@@H]1NC(=O)[C@@H]2CSCCC(=O)N3CN(CN(C3)C(=O)CCSC[C@H](NC(C)=O)C(=O)N3CCC[C@H]3C(=O)N[C@@H](Cc3cccc4ccccc34)C(=O)N[C@H](CC(=O)O)C(=O)N2)C(=O)CCSC[C@@H](C(N)=O)NC(=O)[C@H](Cc2c[nH]c3ccccc23)NC(=O)[C@@H]2C[C@@H](O)CN2C(=O)[C@@H]2CCCN2C(=O)[C@H]([C@@H](C)O)NC(=O)[C@H](CO)NC(=O)[C@H](Cc2c[nH]c3ccccc23)NC(=O)[C@H](CC(=O)O)NC(=O)[C@H](CCNC(=N)N)NC1=O [BCY8181, Ac-(SEQ ID NO: 186)] | 8.46
2) CC[C@H](C)[C@@H]1NC(=O)[C@@H]2CCCN2C(=O)[C@H]([C@@H](C)O)NC(=O)[C@H](CO)NC(=O)[C@H](Cc2c[nH]c3ccccc23)NC(=O)[C@H](CC(N)=O)NC(=O)[C@H](CCCCNC(=N)N)NC(=O)[C@H](CCSC)NC(=O)[C@@H]2CSCCC(=O)N3CN(CN(C3)C(=O)CCSC[C@H](NC(C)=O)C(=O)N3CCC[C@H]3C(=O)N[C@@H](Cc3ccccc3)C(=O)N[C@H](CCC(=O)O)C(=O)N2)C(=O)CCSC[C@@H](C(N)=O)NC(=O)[C@H](Cc2c[nH]c3ccccc23)NC1=O [BCY7903, Ac-(SEQ ID NO: 140)] | 7.39
3) CC[C@H](C)[C@@H]1NC(=O)[C@@H]2CCCN2C(=O)[C@H]([C@@H](C)O)NC(=O)[C@H](CO)NC(=O)[C@H](Cc2c[nH]c3ccccc23)NC(=O)[C@H](CCCCN)NC(=O)[C@H](CCCCNC(=N)N)NC(=O)[C@H](CCSC)NC(=O)[C@@H]2CSCCC(=O)N3CN(CN(C3)C(=O)CCSC[C@H](NC(C)=O)C(=O)N3CCC[C@H]3C(=O)N[C@@H](Cc3ccccc3)C(=O)N[C@H](CC(=O)O)C(=O)N2)C(=O)CCSC[C@@H](C(N)=O)NC(=O)[C@H](Cc2c[nH]c3ccccc23)NC1=O [BCY7822, Ac-(SEQ ID NO: 122)] | 7.57

Okay, now this compound:
Challenge: For the compound CC[C@H](C)[C@@H]1NC(=O)[C@@H]2CCCN2C(=O)[C@H](Cc2c[nH]c3ccccc23)NC(=O)[C@H](CO)NC(=O)[C@H](Cc2cccc3ccccc23)NC(=O)[C@H](CC(N)=O)NC(=O)[C@H](CCCCN)NC(=O)[C@H](CCSC)NC(=O)[C@@H]2CSCCC(=O)N3CN(CN(C3)C(=O)CCSC[C@H](NC(C)=O)C(=O)N3CCC[C@H]3C(=O)N[C@@H](Cc3ccccc3)C(=O)NCC(=O)N2)C(=O)CCSC[C@@H](C(N)=O)NC(=O)[C@H](Cc2c[nH]c3ccccc23)NC1=O [BCY7663, Ac-(SEQ ID NO: 111)] , give its reported pKi.
Response given: 7.59
